Each recorded value in this set is attributed to the supplement of paper PMC6757056.

B1: library; a variant is named by its letters at N, in order (parent)
chain: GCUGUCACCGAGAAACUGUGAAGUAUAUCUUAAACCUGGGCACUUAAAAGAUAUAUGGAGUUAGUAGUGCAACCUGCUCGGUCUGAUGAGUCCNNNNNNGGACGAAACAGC

Variants of: B1
Assay: FACS-Seq fitted mean relative fluorescence mCherry/BFP without ligand (log10 relative fluorescence); HEK293T; ligand: cyclic di-GMP (c-di-GMP-II aptamer); higher = higher reporter protein expression
Settings: ligand present: no
FACS-Seq fitted mean (log10) overview
# print the numeric value only

Use the examples below as a reference point.
GCUGUCACCGAGAAACUGUGAAGUAUAUCUUAAACCUGGGCACUUAAAAGAUAUAUGGAGUUAGUAGUGCAACCUGCUCGGUCUGAUGAGUCCAUAAUAGGACGAAACAGC	-0.503
GCUGUCACCGAGAAACUGUGAAGUAUAUCUUAAACCUGGGCACUUAAAAGAUAUAUGGAGUUAGUAGUGCAACCUGCUCGGUCUGAUGAGUCCCAUCAAGGACGAAACAGC	-0.377
GCUGUCACCGAGAAACUGUGAAGUAUAUCUUAAACCUGGGCACUUAAAAGAUAUAUGGAGUUAGUAGUGCAACCUGCUCGGUCUGAUGAGUCCCCAGGCGGACGAAACAGC	-1.03
GCUGUCACCGAGAAACUGUGAAGUAUAUCUUAAACCUGGGCACUUAAAAGAUAUAUGGAGUUAGUAGUGCAACCUGCUCGGUCUGAUGAGUCCAGGUCAGGACGAAACAGC	-0.483
GCUGUCACCGAGAAACUGUGAAGUAUAUCUUAAACCUGGGCACUUAAAAGAUAUAUGGAGUUAGUAGUGCAACCUGCUCGGUCUGAUGAGUCCACUGGGGGACGAAACAGC	-0.467
GCUGUCACCGAGAAACUGUGAAGUAUAUCUUAAACCUGGGCACUUAAAAGAUAUAUGGAGUUAGUAGUGCAACCUGCUCGGUCUGAUGAGUCCUUAAGAGGACGAAACAGC	-0.227

For GCUGUCACCGAGAAACUGUGAAGUAUAUCUUAAACCUGGGCACUUAAAAGAUAUAUGGAGUUAGUAGUGCAACCUGCUCGGUCUGAUGAGUCCUUGGAAGGACGAAACAGC the variant record lists FACS-Seq fitted mean (log10) as -0.145
